Target: hNAMPT protein (Homo sapiens (Human), UniProt P43490)
Sequence (P43490 whole entry): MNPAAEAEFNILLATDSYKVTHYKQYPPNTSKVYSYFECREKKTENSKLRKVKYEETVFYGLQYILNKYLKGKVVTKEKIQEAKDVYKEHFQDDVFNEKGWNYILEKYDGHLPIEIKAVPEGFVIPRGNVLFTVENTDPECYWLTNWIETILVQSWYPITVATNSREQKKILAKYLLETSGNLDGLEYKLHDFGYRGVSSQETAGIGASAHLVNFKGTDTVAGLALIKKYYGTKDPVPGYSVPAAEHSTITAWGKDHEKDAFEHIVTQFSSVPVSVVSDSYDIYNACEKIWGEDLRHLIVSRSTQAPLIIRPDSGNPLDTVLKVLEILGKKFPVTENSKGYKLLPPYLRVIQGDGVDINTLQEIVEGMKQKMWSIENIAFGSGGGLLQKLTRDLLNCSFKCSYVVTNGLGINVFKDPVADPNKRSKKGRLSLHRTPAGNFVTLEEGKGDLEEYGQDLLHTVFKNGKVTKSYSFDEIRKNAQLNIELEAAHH
Assay: NAMPT enzyme assay (TR-FRET/HTRF, BodiPY ligand, anti 6His-Tb)
Assay type: binding
Conditions: compound concentration 1 μM; read-out: Percent Inhibition
Property: inhibition at 1 µM (%)

CS(=O)(=O)Nc1cccc(-c2nc3ccc(C(=O)NCCCn4ccnc4)cc3nc2-c2ccccc2)c1 [Compound I-290]; 81
O=C(NCCCn1ccnc1)c1ccc2nc(-c3ccccc3)c(-c3ccncc3)nc2c1 [Compound I-251]; 65
Cn1cncc1CCNC(=O)c1ccc2nc(N3CCC(O)CC3)c(-c3ccc(F)cc3)nc2c1 [Compound I-292]; 90
COc1nn(C)c2c1CN(C(=O)c1ccc3nc(-c4ccc(F)cc4)c(-c4ccc(F)cc4)nc3c1)CC2 [Compound I-304]; 17
O=C(NCCCn1ccnc1)c1ccc2nc(-c3ccccc3)c(N3CCOCC3)nc2c1 [Compound I-144]; 43
COc1nccc(-c2nc3cc(C(=O)NCCCc4ncc[nH]4)ccc3nc2-c2ccc(F)cc2)c1F [Compound I-391]; 83
CCN(CC)c1nc2cc(C(=O)NCCCn3ccnc3)ccc2nc1-c1ccccc1 [Compound I-278]; 15
O=C(NCCc1ncc[nH]1)c1ccc2nc(-c3ccc(F)cc3)c(-c3ccc(F)cc3)nc2c1 [Compound I-122]; 60
CN(CCc1cccnc1)C(=O)c1ccc2nc(-c3ccc(F)cc3)c(-c3ccc(F)cc3)nc2c1 [Compound I-84]; 17
NCc1nc2ccc(C(=O)NCCCn3ccnc3)cc2nc1-c1ccccc1 [Compound I-10]; 23
COc1ccc(-c2nc3ccc(C(=O)NCCCn4ccnc4)cc3nc2-c2ccccc2)cc1 [Compound I-99]; 75
CC1(C)CN(c2nc3cc(C(=O)NCCCn4ccnc4)ccc3nc2-c2ccccc2)CCO1 [Compound I-113]; 64
CS(=O)(=O)C1CCN(c2nc3ccc(C(=O)NCCCn4ccnc4)cc3nc2-c2ccccc2)C1 (stereo not shown) [Compound I-150]; 75
O=C(NCCCc1cncnc1)c1ccc2nc(N3CCCCC3)c(-c3ccc(F)cc3)nc2c1 [Compound I-138]; 86
CS(=O)(=O)c1cccc(-c2nc3cc(C(=O)NCCCc4ncc[nH]4)ccc3nc2-c2ccc(F)cc2)c1 [Compound I-384]; 84
O=C(NCCCn1ccnc1)c1ccc2nc(-c3ccccc3Cl)c(-c3ccccc3)nc2c1 [Compound I-257]; 77
CC(C)Oc1nc2ccc(C(=O)NCCCc3cn[nH]c3)cc2nc1-c1ccc(F)cc1 [Compound I-380]; 55
COc1cccc(-c2nc3ccc(C(=O)NCCCn4ccnc4)cc3nc2-c2ccccc2)c1 [Compound I-187]; 84
Cc1ccc(F)cc1-c1nc2cc(C(=O)NCCCc3ncc[nH]3)ccc2nc1-c1ccc(F)cc1 [Compound I-336]; 88
O=C(NCCCn1ccnc1)c1ccc2nc(N3CCN4CCCC4C3)c(-c3ccccc3)nc2c1 (stereo not shown) [Compound I-146]; 76
O=C(NCCOc1cccnc1)c1ccc2nc(-c3ccc(F)cc3)c(-c3ccc(F)cc3)nc2c1 [Compound I-65]; 95
O=C(NCCCc1nccs1)c1ccc2nc(N3CCC(N4CCOCC4)CC3)c(-c3ccc(F)cc3)nc2c1 [Compound I-42]; 96
O=C(NCCCn1ccnc1)c1ccc2nc(N3CCOCC3)c(-c3ccccc3)nc2c1 [Compound I-96]; 82
O=C(NCCCn1ccnc1)c1ccc2nc(-c3cncnc3)c(-c3ccccc3)nc2c1 [Compound I-242]; 45
O=C(NCCc1ccccn1)c1ccc2nc(-c3ccc(F)cc3)c(-c3ccc(F)cc3)nc2c1 [Compound I-169]; 36
